Origin of the recorded values: ChEMBL document CHEMBL1770053

- System: Hepatocyte
- experiment_notes: Intrinsic clearance in rat hepatocytes
- Format: ADME, cell-based, Liver
The threshold is 20 µL/min. Values of CL beneath it are tagged TRUE; values meeting or exceeding it are tagged FALSE.

compound: Cc1nc(C(=O)COc2ccc(SCCCCCc3ccccc3)cc2)sc1C(=O)O
tested_target: Hepatocyte
label_class: TRUE
//
compound: O=C(O)c1ccc2nc(C(=O)COc3ccc(SCCCCCc4ccccc4)cc3)sc2c1
tested_target: Hepatocyte
label_class: FALSE
//
compound: CCCCCCCCCCS(=O)(=O)c1ccc(OCC(=O)c2nc(C)c(CCCC(=O)O)s2)cc1
tested_target: Hepatocyte
label_class: FALSE
//
compound: Cc1nc(C(=O)C(C)Oc2ccc(OCCCCCc3ccccc3)cc2)sc1CCCC(=O)O (stereo not drawn)
tested_target: Hepatocyte
label_class: TRUE
//
compound: Cc1nc(C(=O)COc2ccc(SCCCCCc3ccccc3)cc2)sc1CCO
tested_target: Hepatocyte
label_class: FALSE
//
compound: Cc1nc(C(=O)[C@@H](C)Oc2ccc(SCCCCCc3ccccc3)cc2)sc1CCCC(=O)O
tested_target: Hepatocyte
label_class: TRUE
//
compound: O=C(O)c1ccc2oc(C(=O)COc3ccc(SCCCCCc4ccccc4)cc3)nc2c1
tested_target: Hepatocyte
label_class: FALSE
